TEST METHOD NOTES: In Vitro Microsome Stability Assay (mouse)
Assay type: in vitro ADME
STUDY CONDITIONS: mouse liver microsomes, 30 min w/ NADPH
Where a name gives a salt, the structure may show the parent alone.
ENDPOINT NAME: Liver Microsome Stability-% Left after 30 min w/ NADPH (%) Mouse

1) C[C@@H]1CCN(S(=O)(=O)N2CCc3cc(Cl)ccc3C2)CCCN(CC2CCCCC2)CCCN1S(=O)(=O)c1ccc(N(C)C)cc1 = 0.83
2) C=C1CN(S(=O)(=O)c2ccc(C)cc2)CCCN(CC2CCCCC2)CCC(C)N(S(=O)(=O)c2ccc(C)cc2)C1 (stereo not drawn) [B1, hydrochloride] = 0.02
3) Cc1ccc(CN2CCCN(S(=O)(=O)c3ccc(N(C)C)cc3)C[C@H](C)CN(S(=O)(=O)N3CCc4cc(Cl)ccc4C3)CCC2)cc1 = 101

###

# Liver Microsome Stability-% Left after 30 min w/ NADPH (%) Mouse per entry
TEST METHOD NOTES: In Vitro Microsome Stability Assay (mouse)
Type: in vitro ADME
STUDY CONDITIONS: mouse, 30 min, NADPH
ENDPOINT NAME: Liver Microsome Stability-% Left after 30 min w/ NADPH (%) Mouse

1) C[C@H]1CN(S(=O)(=O)c2ccc(N(C)C)cc2)CCCN(CC2CCCCC2)CCCN(S(=O)(=O)N2CC[C@H](c3ccccc3)C2)C1 [A91] = 25.4%
2) C=C1CN(S(=O)(=O)c2ccc(N(C)C)cc2)CCCN(CC2CCCCC2)CCCN(S(=O)(=O)N2CCC(c3nc4ccccc4o3)CC2)C1 [A80] = 13.4%
3) C=C1CN(S(=O)(=O)c2ccc(C)cc2)CCCN(CC2CCCCC2)CCCN(S(=O)(=O)C(C)C)C1 [A7] = 0.17%
4) C=C1CN(S(=O)(=O)c2ccc(N(C)C)cc2)CCCN(CC2CCCCC2)CCCN(S(=O)(=O)N2CCN(c3ccc(Cl)cc3)CC2)C1 [A85] = 52.2%
5) C=C1CN(S(=O)(=O)CC)CCCN(CC2CCCCC2)CCCN(S(=O)(=O)c2ccc(C)cc2)C1 [A6] = 0.12%
6) CC1CCCCN1S(=O)(=O)N1CCCN(CC2CCCCC2)CCCN(S(=O)(=O)c2ccc(N(C)C)cc2)CC2(CC2)C1 (stereo not shown) [A20] = 0.07%
7) C[C@H]1CN(S(=O)(=O)c2ccc(N(C)C)cc2)CCCN(CC2CCCCC2)CCCN(S(=O)(=O)N2CCN(c3ccc(F)cc3)CC2)C1 [A96] = 37.6%

###

Tested on: full length IL-2 (amino acids 1-153) fused to Gaussia Luciferase
TEST METHOD NOTES: Dox Induced IL2-FL-Gluc Assay
Type: cell-based
STUDY CONDITIONS: 24 hr, Dox inducible, 293FRT/TO cells; read-out: 24 hr Dox Inducible IL2FLGluc 293FRT/TO: Mean IC50
Output schema: class label derived from IC50. Mapping: class 0: < 0.08 µM; class 1: ≥ 0.08 µM and < 0.5 µM; class 2: ≥ 0.5 µM

1. COc1c(F)cccc1N1CCN(S(=O)(=O)N2CCCN(CC3CCCCC3)CCCN(S(=O)(=O)c3ccc(N(C)C)cc3)C[C@H](C)C2)CC1 [A175] = class 0
2. CCc1ccc(CNS(=O)(=O)N2CCCN(CC3CCCCC3)CCCN(S(=O)(=O)c3ccc(N(C)C)cc3)C[C@H](C)C2)cc1 [A189] = class 2
3. C[C@H]1CN(CC2CCCCC2)C[C@H](C)CN(S(=O)(=O)N2CCc3cc(Cl)ccc3C2)C[C@@H](C)CN(S(=O)(=O)c2ccc(N(C)C)cc2)C1 [A160] = class 1
4. C[C@H]1CN(S(=O)(=O)c2ccc(N(C)C)cc2)CCCN(CC2CCCCC2)CCCN(S(=O)(=O)N2CCN(c3ccc(F)cc3Cl)CC2)C1 [A206] = class 0
5. Cc1ccccc1CN1CCCN(S(=O)(=O)c2ccc(N(C)C)cc2)C[C@H](C)CN(S(=O)(=O)N2CCc3cc(Cl)ccc3C2)CCC1 [A133] = class 1
6. C[C@H]1CN(S(=O)(=O)c2ccc(N(C)C)cc2)CCCN([C@@H](C)C2CCCCC2)CCCN(S(=O)(=O)N2CCc3cc(Cl)ccc3C2)C1 [A190] = class 0
7. COc1cc(F)cc(N2[C@H](C)CN(S(=O)(=O)N3CCCN(CC4CCCCC4)CCCN(S(=O)(=O)c4ccc(N(C)C)cc4)C[C@H](C)C3)C[C@@H]2C)c1 [A197] = class 1
8. C[C@H]1CN(S(=O)(=O)c2ccc(N(C)C)cc2)CCCN(CC2CCCCC2)CCCN(S(=O)(=O)N2CCc3c(C#N)cccc3C2)C1 [A151] = class 1
9. C[C@@H]1CN(CC2CCCCC2)C[C@H](C)CN(S(=O)(=O)c2ccc(N(C)C)cc2)C[C@H](C)CN(S(=O)(=O)N2CCc3cc(Cl)ccc3C2)C1 [B16] = class 2
10. C[C@H]1CN(S(=O)(=O)c2ccc(N(C)C)cc2)CCCNCCCN(S(=O)(=O)N2CCc3cc(Cl)ccc3C2)C1 [A183] = class 2
11. Cc1cc(F)ccc1N1CC2(C1)CN(S(=O)(=O)N1CCCN(CC3CCCCC3)CCCN(S(=O)(=O)c3ccc(N(C)C)cc3)C[C@H](C)C1)C2 [A161] = class 2
12. C[C@H]1CN(S(=O)(=O)c2ccc(N(C)C)cc2)CCCN(CC2CCCCC2)CCCN(S(=O)(=O)N(C)Cc2ccccc2)C1 [A184] = class 1
13. C[C@H]1CN(S(=O)(=O)c2ccc(N(C)C)cc2)CCCN(CC2CC(F)(F)C2)CCCN(S(=O)(=O)N2CCc3cc(Cl)ccc3C2)C1 [A169] = class 1
14. COc1cc(F)ccc1N1CCN(S(=O)(=O)N2CCCN([C@@H](C)C3CCCCC3)CCCN(S(=O)(=O)c3ccc(N(C)C)cc3)C[C@H](C)C2)CC1 [A203] = class 0
15. C[C@H]1CN(S(=O)(=O)c2ccc(N(C)C)cc2)CCCN(CC2CCCCC2)CCCN(S(=O)(=O)N2CCN(c3ccccc3C#N)CC2)C1 [A118] = class 1
16. C[C@H]1CN(S(=O)(=O)c2ccc(N(C)C)cc2)CCCN(CC2=CCCC2)CCCN(S(=O)(=O)N2CCc3cc(Cl)ccc3C2)C1 [A142] = class 0
17. C[C@H]1CN(S(=O)(=O)c2ccc(N(C)C)cc2)CCCN(CC2CCC(F)CC2)CCCN(S(=O)(=O)N2CCc3cc(Cl)ccc3C2)C1 (stereo partly shown) [A204] = class 1
18. C[C@H]1CN(S(=O)(=O)c2ccc(N(C)C)cc2)CCCN(CC2=CCCCC2)CCCN(S(=O)(=O)N2CCc3cc(Cl)ccc3C2)C1 [A135] = class 0
19. COc1c(N2CCN(S(=O)(=O)N3CCCN(CC4CCCCC4)CCCN(S(=O)(=O)c4ccc(N(C)C)cc4)C[C@H](C)C3)CC2)ccc(F)c1F [A174] = class 0
20. C[C@H]1CN(S(=O)(=O)c2ccc(N(C)C)cc2)CCCN(CC2CCCCC2)CCCN(S(=O)(=O)N2CCN(C(=O)c3ccccc3)CC2)C1 [A100] = class 2
21. COc1ccc([C@@H]2CCCN(S(=O)(=O)N3CCCN(CC4CCCCC4)CCCN(S(=O)(=O)c4ccc(N(C)C)cc4)C[C@H](C)C3)C2)cc1 [A208] = class 2
22. C[C@H]1CN(S(=O)(=O)c2ccc(N(C)C)cc2)CCCCN(S(=O)(=O)N2CCc3cc(Cl)ccc3C2)C1 [B21] = class 2
23. C[C@H]1CN(S(=O)(=O)c2ccc(N(C)C)cc2)CCCN(Cc2ncco2)CCCN(S(=O)(=O)N2CCc3cc(Cl)ccc3C2)C1 [A125] = class 2
24. COc1cccc(N2CCN(S(=O)(=O)N3CCCN(CC4CCCCC4)CCCN(S(=O)(=O)c4ccc(N(C)C)cc4)C[C@H](C)C3)CC2)c1 [A201] = class 1
